Test: NCI Yeast Anticancer Drug Screen. Data for the sgs1 mgt1 strain (AID 161);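 also: 0% = growth of cultures given vehicle only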
Settings: S. cerevisiae sgs1 mgt1 strain, at 5.0 µM (retest, dose inferred, filed as 0.5)
Compounds without any hit were thinned out: in the full panel of roughly 79,000, 15% have a hit. Active and inactive are the calls of the source. Rule as the data show it: active = growth inhibition above about 70%; inactive = the rest.
Write down the outcome that applies. Available outcomes: active, inactive

Some entries whose results are on file:
{"columns": ["molecule", "assigned_category"],
 "data": [
  ["CC1=C(C(=O)Nc2ccc(Cl)c(Cl)c2)C(c2ccco2)C(C(=O)Nc2ccc(Cl)c(Cl)c2)=C(C)N1", "inactive"],
  ["CC12CCC(=O)C=C1CCC1C2C(O)CC2(C)C(c3csc(N)n3)CCC12 (stereo not given)", "inactive"],
  ["Oc1ccccc1C(=NNc1ccccc1)c1ccccc1O", "inactive"],
  ["C/C(=N\\NC(=S)Nc1ccc(C)cc1)c1nc2ncccc2[nH]1", "inactive"],
  ["CCO/C=C1N=C(/C=C/c2ccccc2Cl)OC/1=O", "inactive"],
  ["COc1ccc2c(c1)CCc1c(CO)c(COC(=O)NC(C)C)n(C)c1-2", "active"]
]}

# input Dear colleague, could you share the recorded outcome for `Cc1cccc(/C=N/Nc2cc(C)nc3ccccc23)n1` when you have a moment?
# output inactive

# input Could you kindly confirm the outcome this assay logged for `Cc1ccc(NC(=S)SCc2ccc(Cl)cc2)cc1Cl` ?
# output inactive

# input Tell me the assay call for COc1cccc2c1C(=O)c1c(O)c3c(c(O)c1C2=O)CC(O)(C(C)=O)CC3OC1CC(NCC2(O)OCC(O)C2O)C(O)C(C)O1 (stereo not given) please.
# output inactive

# input Check the results log: what was the call for CCCC(CC)c1c(O)c(O)c(C(CC)CCC)c(C(CC)CCC)c1C(CC)CCC (stereo not given) ?
# output inactive

# input For `CCOC(=O)Cc1nc2ccccc2s1` , what call appears in the results of this test?
# output inactive

# input Test call for this molecule, please: Cc1ccc[n+](CC(=O)C2CCC3C4CC=C5CC(O)CCC5(C)C4CCC23C)c1 (stereo not given)
# output inactive

# input Dear colleague, could you share the recorded outcome for `CC(C)=NOCCOC(=O)C(c1ccccc1)c1ccccc1` when you have a moment?
# output inactive

# input Query: recorded result category for COc1cccc2c1C(=O)c1c(O)c3c(c(O)c1C2=O)C[C@@](O)(/C(C)=N/NC(N)=S)C[C@@H]3OC1CC(N)C(O)C(C)O1 (stereo not given in full) in this test
# output inactive

# input Tell me the assay call for `O=C(NCCCN1CCN(CCCNC(=O)c2cc(-c3ccccc3)nc3ccccc23)CC1)c1cc(-c2ccccc2)nc2ccccc12` please.
# output inactive

# input Per the records of this test, what outcome belongs to O=C1OC(c2ccc3c(c2)OCO3)Sc2ccccc21 (stereo not given) ?
# output inactive

# input I'd appreciate the recorded outcome for OCC1(O)OCC(O)C(O)C1O (stereo not given) from this test.
# output inactive

====

Experiment: NCI Yeast Anticancer Drug Screen. Data for the rad50 strain (AID 155);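 also: 0% = growth of vehicle-only cultures of the same strain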
Settings: S. cerevisiae rad50 strain growth inhibition; at 5.0 µM (retest, dose inferred, filed as 0.5); stronger effect = higher value
The panel holds about 79,000 compounds, 15% with a hit somewhere; the sample as a whole holds those more often.
quantity_measured: growth inhibition (%)
Give the quantity in %, number only.

{"columns": ["compound", "growth inhibition (%)"],
 "data": [
  ["CCOc1c(N=Nc2ccc(Cl)cc2)c(-c2ccccc2)nn1C(=S)S", 4],
  ["Cn1sc2ccccc2c1=S", -112],
  ["O=[N+]([O-])c1ccccc1NCCO", 1],
  ["OC(C1CCCCN1)C1CC(c2ccccc2)Nc2c(Cl)cc(Cl)cc21 (stereo unspecified)", 9],
  ["CS(=O)(=O)OCCN(CCOS(C)(=O)=O)c1ccc(C=Nc2ccc(-c3csc(-c4ccc(Br)cc4)n3)cc2)cc1", 33],
  ["Cc1ccc(S(=O)(=O)NCCSCCSCCNS(=O)(=O)c2ccc(C)cc2)cc1", -1]
]}

# input Which growth inhibition reading was recorded for the compound `O=C1C=CC(=O)C(c2ccc(Cl)cc2)=C1` ?
# output 45

# input Which growth inhibition value is on record for `CN(c1ccc(Cl)cc1)S(=O)(=O)c1cccc([N+](=O)[O-])c1` ?
# output -6

# input Could you share which growth inhibition value was measured for `CC1=Cc2cc3[n-]c(cc4nc(cc5[n-]c(cc1n2)cc5C)C(C)=C4CCC(=O)O)c(CCC(=O)O)c3C.[Pd+2]` ?
# output 0

# input Value lookup for growth inhibition; key = `CC1(C)CC(=N/O)/C(=N/O)C(=N\NC(N)=S)/C1`
# output 7

# input What measured growth inhibition goes with `CCCC(=S)N1CCOCC1` ?
# output -1

# input Endpoint output: growth inhibition of `CC(C)=CCc1ccc(O)cc1` . Value?
# output -24

# input compound: CC1CCC2(NC1)OC1CC3[C@@H]4CC=C5C=CCC[C@]5(C)C4CC[C@]3(C)C1C2C (stereo partly specified) ; wanted: its growth inhibition
# output -16

# input Any idea what its growth inhibition is? The compound is `COc1ccc(-c2c3c(cc4cc5c(cc24)OCO5)C(=O)OC3)cc1OC`
# output 26

# input Could you share which growth inhibition value was measured for CC(C)(C)CCCC(C(=O)O)c1ccccc1 (stereo unspecified) ?
# output 0

# input Please look up its growth inhibition: CC12C=CC(=O)C=C1CCC1C3CCC(O)(C(=O)CO)C3(C)CC(O)C12F (stereo unspecified)
# output 2

# input May I ask what growth inhibition has been recorded for `Cc1c(C)c(C[P+](CCP(c2ccccc2)c2ccccc2)(c2ccccc2)c2ccccc2)c(C)c(C)c1C[P+](CCP(c1ccccc1)c1ccccc1)(c1ccccc1)c1ccccc1` ?
# output 18

# input Would you kindly share the measured growth inhibition for Cc1ccc(SCC#CC#CCS(=O)c2ccc(C)cc2)cc1 (stereo unspecified) ?
# output 100
